# measured-target: GSPT1 (Homo sapiens, UniProt P15170+Q96SW2)
# Construct: host or cells: HEK293 LgBiT cell line
# Sequence (P15170 whole entry): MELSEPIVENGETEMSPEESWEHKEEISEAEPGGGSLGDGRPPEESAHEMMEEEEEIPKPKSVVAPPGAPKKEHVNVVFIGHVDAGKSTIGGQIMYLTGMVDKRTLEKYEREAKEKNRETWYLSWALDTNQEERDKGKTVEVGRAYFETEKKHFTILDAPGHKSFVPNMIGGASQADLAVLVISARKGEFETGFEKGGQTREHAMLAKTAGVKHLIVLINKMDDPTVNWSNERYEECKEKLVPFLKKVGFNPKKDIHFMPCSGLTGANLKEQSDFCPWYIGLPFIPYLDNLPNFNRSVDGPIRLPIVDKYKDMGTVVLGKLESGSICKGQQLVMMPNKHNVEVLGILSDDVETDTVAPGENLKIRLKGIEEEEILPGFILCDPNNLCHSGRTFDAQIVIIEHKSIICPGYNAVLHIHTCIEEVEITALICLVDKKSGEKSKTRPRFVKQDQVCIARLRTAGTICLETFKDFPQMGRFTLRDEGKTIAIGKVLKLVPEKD
# Sequence (Q96SW2 whole entry): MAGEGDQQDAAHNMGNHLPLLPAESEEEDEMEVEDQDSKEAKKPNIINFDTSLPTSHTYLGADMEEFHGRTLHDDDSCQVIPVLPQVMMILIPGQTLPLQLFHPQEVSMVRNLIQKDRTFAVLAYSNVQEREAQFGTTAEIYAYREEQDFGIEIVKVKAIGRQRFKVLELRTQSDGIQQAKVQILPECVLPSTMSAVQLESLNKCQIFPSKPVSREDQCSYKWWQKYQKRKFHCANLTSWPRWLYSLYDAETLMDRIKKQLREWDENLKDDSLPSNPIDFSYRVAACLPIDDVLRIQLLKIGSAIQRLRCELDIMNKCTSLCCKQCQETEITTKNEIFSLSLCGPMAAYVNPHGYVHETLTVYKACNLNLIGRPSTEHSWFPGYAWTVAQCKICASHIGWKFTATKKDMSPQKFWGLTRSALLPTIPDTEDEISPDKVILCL
# Sequence (Q16531 whole entry partner): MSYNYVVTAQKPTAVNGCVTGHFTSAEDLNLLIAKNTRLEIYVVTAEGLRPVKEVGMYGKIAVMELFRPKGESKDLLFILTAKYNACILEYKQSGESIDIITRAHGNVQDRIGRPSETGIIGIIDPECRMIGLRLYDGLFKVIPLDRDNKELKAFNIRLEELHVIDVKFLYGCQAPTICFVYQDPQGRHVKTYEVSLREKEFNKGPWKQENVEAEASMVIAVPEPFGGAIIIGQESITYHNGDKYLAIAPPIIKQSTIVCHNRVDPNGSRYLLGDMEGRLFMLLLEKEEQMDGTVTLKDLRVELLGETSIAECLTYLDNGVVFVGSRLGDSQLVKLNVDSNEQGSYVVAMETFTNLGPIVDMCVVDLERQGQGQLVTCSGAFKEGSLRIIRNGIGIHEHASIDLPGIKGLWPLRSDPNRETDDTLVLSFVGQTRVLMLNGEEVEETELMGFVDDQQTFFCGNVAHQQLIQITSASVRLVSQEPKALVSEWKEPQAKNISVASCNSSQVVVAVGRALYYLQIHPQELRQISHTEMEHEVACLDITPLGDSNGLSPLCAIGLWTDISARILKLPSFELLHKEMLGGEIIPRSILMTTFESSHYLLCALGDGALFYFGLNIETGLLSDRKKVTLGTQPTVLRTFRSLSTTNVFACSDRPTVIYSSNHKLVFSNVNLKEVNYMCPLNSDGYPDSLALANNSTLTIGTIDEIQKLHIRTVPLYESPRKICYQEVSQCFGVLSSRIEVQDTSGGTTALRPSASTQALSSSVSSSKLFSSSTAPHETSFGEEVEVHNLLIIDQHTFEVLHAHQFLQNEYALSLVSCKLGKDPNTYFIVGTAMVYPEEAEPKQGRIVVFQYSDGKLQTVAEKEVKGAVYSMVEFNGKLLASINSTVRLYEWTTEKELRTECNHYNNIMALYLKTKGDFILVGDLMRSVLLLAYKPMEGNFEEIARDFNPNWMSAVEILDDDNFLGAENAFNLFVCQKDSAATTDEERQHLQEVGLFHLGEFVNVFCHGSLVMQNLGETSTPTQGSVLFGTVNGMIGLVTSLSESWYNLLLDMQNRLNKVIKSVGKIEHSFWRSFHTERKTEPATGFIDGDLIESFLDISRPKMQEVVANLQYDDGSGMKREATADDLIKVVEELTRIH
# test-method-notes: GSPT1 HiBit degradation assay
# Type: cell-based
# condition-description: Table 3; HEK293 LgBiT cells expressing GSPT1_HiBiT, luminescence after 6 hours
# Source text: Promega developed a HEK293 cell line that constitutively expresses LgBiT protein and GSPT1_HiBiT fusion protein. […] Endurazine, a cell permeable small molecule, is converted by cellular esterases into furimazine, which the luciferase enzyme uses as a substrate to generate luminescence. […] This prevents formation of fully functional luciferase, leading to a loss in luminescence. GSPT1 degradation therefore correlates with a decrease in luminescence and can be measured continuously over time. […]
measurement-label: DC50

# compound, DC50
measured = [
    ("C=CC(=O)Nc1cc(Nc2nccc(-c3cn(C)c4ccccc34)n2)c(OC)cc1N(C)CCN(C)CCOCCOCCOCCOCCOCCOCCOCCOCCCCCCCCc1cc(Cl)cc(NC(=O)NCc2ccc3c(c2)CN(C2CCC(=O)NC2=O)C3=O)c1 (centres unmarked)", "< 250 nM"),
]

Per the reported GSPT1 (Homo sapiens, UniProt P15170+Q96SW2) data, C=C(F)C(=O)N1CCN(c2nc(OC[C@@H]3CCCN3CCOCCOCCOCCOCCOCCOCCOCCOCCCCCCCCCCCCCCc3cc(Cl)cc(NC(=O)NCc4ccc5c(c4)CN(C4CCC(=O)NC4=O)C5=O)c3)nc3c2CCN(c2cccc4cccc(Cl)c24)C3)C[C@@H]1CC#N (some centres unmarked) has DC50 of 250 to 5000 nM

Per the reported GSPT1 (Homo sapiens, UniProt P15170+Q96SW2) data, C=C(F)C(=O)N1CCN(c2nc(OC[C@@H]3CCCN3CCCOCCOCCOCCOCCCCCCCCc3cc(Cl)cc(NC(=O)NCc4ccc5c(c4)CN(C4CCC(=O)NC4=O)C5=O)c3)nc3c2CCN(c2cccc4cccc(Cl)c24)C3)C[C@@H]1CC#N (some centres unmarked) has DC50 of < 250 nM

Per the reported GSPT1 (Homo sapiens, UniProt P15170+Q96SW2) data, C=C(F)C(=O)N1CCN(c2nc(OC[C@@H]3CCCN3CCOCCOCCOCCOCCOCCOCCOCCOCCOCCOCCOCCOCCCCCCCCc3cc(Cl)cc(NC(=O)NCc4ccc5c(c4)CN(C4CCC(=O)NC4=O)C5=O)c3)nc3c2CCN(c2cccc4cccc(Cl)c24)C3)C[C@@H]1CC#N (some centres unmarked) has DC50 of < 250 nM

Per the reported GSPT1 (Homo sapiens, UniProt P15170+Q96SW2) data, Cc1c(CC(=O)N(C)C)ccc(NC(=O)c2nn([C@H]3CCCN(C(=O)/C=C/CN(C)CCOCCOCCOCCOCCCCCCCCc4cc(Cl)cc(NC(=O)NCc5ccc6c(c5)CN(C5CCC(=O)NC5=O)C6=O)c4)C3)c3ncnc(N)c23)c1C (some centres unmarked) has DC50 of < 250 nM

Per the reported GSPT1 (Homo sapiens, UniProt P15170+Q96SW2) data, CC1(C)[C@H](NC(=O)c2ccc(OCCOCCOCCOCCOCCOCCOCCOCCOCCOCCOCCOc3cc(Cl)cc(NC(=O)NCc4ccc5c(c4)CN(C4CCC(=O)NC4=O)C5=O)c3)cc2)C(C)(C)[C@H]1Oc1ccc(C#N)c(Cl)c1 (some centres unmarked) has DC50 of 250 to 5000 nM

Per the reported GSPT1 (Homo sapiens, UniProt P15170+Q96SW2) data, C=C(F)C(=O)N1CCN(c2nc(OC[C@@H]3CCCN3CCCCCCCCNc3cccc4c3CN(C3CCC(=O)NC3=O)C4=O)nc3c2CCN(c2cccc4cccc(Cl)c24)C3)C[C@@H]1CC#N (some centres unmarked) has DC50 of > 10000 nM

Per the reported GSPT1 (Homo sapiens, UniProt P15170+Q96SW2) data, C=C(F)C(=O)N1CCN(c2nc(OC[C@@H]3CCCN3CCOCCOCCOCCOCCOCCCCCc3cc(Cl)cc(NC(=O)NCc4ccc5c(c4)CN(C4CCC(=O)NC4=O)C5=O)c3)nc3c2CCN(c2cccc4cccc(Cl)c24)C3)C[C@@H]1CC#N (some centres unmarked) has DC50 of 250 to 5000 nM

Every entry's value here was drawn from patent US20240238424A1.
